biological target: HLA-C*07:02; assay: IEDB peptide-MHC binding, purified MHC/direct/fluorescence; filed as Kd, often an IC50 or EC50 that approximates it; bounds were set here for any values at or beyond the usual limits of such assays; conditions: source organism: Yersinia pestis CO92
Measured Property: Kd (nM)
Numeric only. Scale: nM

Observed Kd, HLA-C*07:02, YSFSRAYTL : 347

---

target: HLA-B*08:01; test: IEDB peptide-MHC binding, purified MHC/direct/fluorescence; filed as Kd, often an IC50 or EC50 that approximates it; bounds were set here for any values at or beyond the usual limits of such assays; settings: source organism: Influenza A virus (A/quail/Hong Kong/FY298/00(H9N2))
pKd: −log10 of the molar value.
Measured Property: pKd

Simply: ALTLNTMTK , HLA-B*08:01, pKd = ≤ 4.70
